Test: MTT dye reduction cytotoxicity test, OKF6
Assay type: cell-based
Settings: human
quantity: cytotoxicity at 10 μg/ml (%)
Note: unit % is implicit; provide only the numeric part.

Record C[C@H]1[C@H](C)CC[C@]2(C(=O)O)CC[C@]3(C)C(=CC[C@@H]4[C@@]5(C)C[C@@H](O)[C@H](O)[C@@](C)(CO)[C@@H]5CC[C@]43C)[C@H]12 , field cytotoxicity at 10 μg/ml: 88

###

Test: MTT dye reduction cytotoxicity test, OKF6
Assay type: cell-based
Settings: human
quantity: cytotoxicity at 20 μg/ml (%)
Note: unit % is implicit; provide only the numeric part.

Record C[C@H]1[C@H](C)CC[C@]2(C(=O)O)CC[C@]3(C)C(=CC[C@@H]4[C@@]5(C)C[C@@H](O)[C@H](O)[C@@](C)(CO)[C@@H]5CC[C@]43C)[C@H]12 [Asiatic Acid, asiatic acid] , field cytotoxicity at 20 μg/ml: 92

###

Experiment: MTT dye reduction cytotoxicity test, new born foreskin fibroblast cells
Format: cell-based, human
Conditions: human; New Born Foreskin Fibroblast cells, 25 μg/ml; read-out: % cytotox
quantity: cytotoxicity at 25 μg/ml (%)
Note: unit % is implicit; provide only the numeric part.

Record CC(=O)O[C@H]1C(=O)[C@@]2(C)[C@H]([C@H](OC(=O)c3ccccc3)[C@]3(O)C[C@H](OC(=O)[C@H](O)[C@@H](NC(=O)c4ccccc4)c4ccccc4)C(C)=C1C3(C)C)[C@]1(OC(C)=O)CO[C@@H]1C[C@@H]2O [Taxol, reference compound] , field cytotoxicity at 25 μg/ml: 55

###

Assay: MTT dye reduction cytotoxicity test, new born foreskin fibroblast cells
Type: cell-based, human
Settings: human
quantity: cytotoxicity at 25 μg/ml

Record C[C@H]1[C@H](C)CC[C@]2(C(=O)O)CC[C@]3(C)C(=CC[C@@H]4[C@@]5(C)C[C@@H](O)[C@H](O)[C@@](C)(CO)[C@@H]5CC[C@]43C)[C@H]12 , field cytotoxicity at 25 μg/ml: 84%

###

Experiment: MTT dye reduction cytotoxicity test, new born foreskin fibroblast cells
Assay type: cell-based, human
Settings: human; New Born Foreskin Fibroblast cells, 6.25 μg/ml; read-out: % cytotox
quantity: cytotoxicity at 6.25 μg/ml (%)
Note: unit % is implicit; provide only the numeric part.

Record CC(=O)O[C@H]1C(=O)[C@@]2(C)[C@H]([C@H](OC(=O)c3ccccc3)[C@]3(O)C[C@H](OC(=O)[C@H](O)[C@@H](NC(=O)c4ccccc4)c4ccccc4)C(C)=C1C3(C)C)[C@]1(OC(C)=O)CO[C@@H]1C[C@@H]2O [Taxol, reference compound] , field cytotoxicity at 6.25 μg/ml: 40

###

Assay: MTT dye reduction cytotoxicity test, OKF6
Assay type: cell-based
Settings: human, OKF6 cells (SV40-transformed normal epithelial cell line); OKF6, 5 μg/ml
quantity: cytotoxicity at 5 μg/ml (%)
Note: unit % is implicit; provide only the numeric part.

Record CC(=O)O[C@H]1C(=O)[C@@]2(C)[C@H]([C@H](OC(=O)c3ccccc3)[C@]3(O)C[C@H](OC(=O)[C@H](O)[C@@H](NC(=O)c4ccccc4)c4ccccc4)C(C)=C1C3(C)C)[C@]1(OC(C)=O)CO[C@@H]1C[C@@H]2O [Taxol, reference compound] , field cytotoxicity at 5 μg/ml: 41

###

Assay: MTT dye reduction cytotoxicity test, OKF6
Format: cell-based
Settings: human
quantity: cytotoxicity at 5 μg/ml (%)
Note: unit % is implicit; provide only the numeric part.

Record C[C@H]1[C@H](C)CC[C@]2(C(=O)O)CC[C@]3(C)C(=CC[C@@H]4[C@@]5(C)C[C@@H](O)[C@H](O)[C@@](C)(CO)[C@@H]5CC[C@]43C)[C@H]12 , field cytotoxicity at 5 μg/ml: 23
